# Test system: Oleandomycin glycosyltransferase (Streptomyces antibioticus), Q53685 [A242V]
# Sequence (Q53685 whole entry A242V): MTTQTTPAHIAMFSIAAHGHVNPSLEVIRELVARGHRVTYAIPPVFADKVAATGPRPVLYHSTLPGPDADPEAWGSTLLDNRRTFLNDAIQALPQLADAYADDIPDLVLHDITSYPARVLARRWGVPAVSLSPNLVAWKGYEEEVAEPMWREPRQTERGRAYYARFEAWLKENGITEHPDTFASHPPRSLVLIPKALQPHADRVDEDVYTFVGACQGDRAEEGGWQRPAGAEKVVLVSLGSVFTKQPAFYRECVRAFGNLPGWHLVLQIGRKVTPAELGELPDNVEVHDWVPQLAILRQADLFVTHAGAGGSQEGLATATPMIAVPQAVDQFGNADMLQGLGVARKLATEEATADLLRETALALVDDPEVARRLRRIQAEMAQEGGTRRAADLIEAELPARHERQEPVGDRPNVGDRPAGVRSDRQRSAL
# protocolDetails: Activity of Streptomyces antibioticus OleD A242V mutant assessed as as rate of glucoside formation measured as nanomoles of product formed per minute per mg of enzyme
With a cut-off of 8 nmol/min, any Activity strictly below it is called true (1); any Activity meeting it or above is called false (0).

smilesRecord	assignedClass
CO[C@H]1C[C@H](O[C@H]2[C@H](C)[C@@H](O[C@@H]3O[C@H](C)C[C@H](N(C)C)[C@H]3O)[C@@H](C)C[C@@]3(CO3)C(=O)[C@H](C)[C@@H](O)[C@@H](C)[C@@H](C)OC(=O)[C@@H]2C)O[C@@H](C)[C@@H]1O	false (0)
CC(C)=CCc1cc(C(=O)Nc2c(O)c3ccc(O)c(C)c3oc2=O)ccc1O	true (1)
O=c1c(-c2ccc(O)cc2)coc2cc(O)ccc12	false (0)
O=C(O)Cc1cc(=O)oc2cc(O)ccc12	true (1)
O=c1c(O)c(-c2ccc(O)cc2)oc2cc(O)cc(O)c12	false (0)
O=c1c(-c2ccc(O)cc2)coc2cc(O)cc(O)c12	false (0)
O=C(O)c1cc2ccc(O)cc2oc1=O	true (1)
Cc1cc(=O)oc2cc(O)ccc12	true (1)
